# protocolText: Phase 1 DDI study 004 part A: lemborexant plasma PK with/without rifampin
# Format: in vivo, human
# experimentalParameters: human, plasma, AUC0‐t, Geometric LSM, lemborexant 10 mg + rifampin 600 mg once daily, n = 15
experimentalEndpoint: AUC (ng·h/mL)
Only the number, expressed in ng·h/mL, is required.

Ask: Suppose we examine the compound Cc1ncc(OC[C@@]2(c3cccc(F)c3)C[C@H]2C(=O)Nc2ccc(F)cn2)c(C)n1 ; what AUC value has been reported?
Reply: 12.3

* * *

# protocolText: Phase 1 DDI study 004 part A: lemborexant plasma PK with/without itraconazole
# Type: in vivo, human
# experimentalParameters: human, plasma, 10 mg, AUC0‐inf, Geometric LSM, lemborexant 10 mg alone, n = 15, itraconazole cohort
experimentalEndpoint: AUC

Ask: What measured AUC goes with Cc1ncc(OC[C@@]2(c3cccc(F)c3)C[C@H]2C(=O)Nc2ccc(F)cn2)c(C)n1 [Lemborexant] ?
Reply: 433 ng·h/mL
